- tested.system: Kir4.1 (Homo sapiens, UniProt P78508)
- Construct: host or cells: CHO-K1
- Sequence (P78508 1-379): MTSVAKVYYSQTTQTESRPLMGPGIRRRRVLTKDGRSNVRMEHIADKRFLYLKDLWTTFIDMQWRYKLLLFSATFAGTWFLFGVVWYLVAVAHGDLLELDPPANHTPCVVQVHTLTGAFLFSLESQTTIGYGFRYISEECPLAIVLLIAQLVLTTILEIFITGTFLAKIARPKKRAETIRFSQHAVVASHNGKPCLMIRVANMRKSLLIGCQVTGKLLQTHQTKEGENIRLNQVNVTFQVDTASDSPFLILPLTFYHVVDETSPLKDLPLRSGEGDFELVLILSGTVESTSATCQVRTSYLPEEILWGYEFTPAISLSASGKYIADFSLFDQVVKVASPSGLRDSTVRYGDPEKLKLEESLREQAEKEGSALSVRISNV
- experiment: Whole-cell patch clamp, Kir4.1 currents in transfected CHO-K1 cells
- Type: cell-based
- condition.parameters: CHO-K1, 10 μM; -120 mV; read-out: Kir4.1 Inhibition ± SD (%) at 10 μM, -120 mV
reported.property: inhibition at 10 µM (%)

compound	reported.property	endpoint.value
c1ccc2c(c1)oc1ccc(Nc3ccnc(NCCCN4CCCC4)n3)cc12 [JX3239]	inhibition at 10 µM	90.9
c1ccc2c(c1)oc1ccc(Nc3ccnc(NCCCN4CCCOCC4)n3)cc12 [JX3250]	inhibition at 10 µM	88.3
Cc1cnc(NCCCN2CCOCC2)nc1Nc1ccc2oc3ccccc3c2c1 [JX3216]	inhibition at 10 µM	92
c1ccc2c(c1)oc1ccc(Nc3cncc(NCCCN4CCOCC4)c3)cc12 [JX3221]	inhibition at 10 µM	90.4

---

Below, each entry is listed with its recorded inhibition at 10 µM.
- tested.system: Kir4.1 (Homo sapiens, UniProt P78508)
- Construct: host or cells: CHO-K1
- Sequence (P78508 1-379): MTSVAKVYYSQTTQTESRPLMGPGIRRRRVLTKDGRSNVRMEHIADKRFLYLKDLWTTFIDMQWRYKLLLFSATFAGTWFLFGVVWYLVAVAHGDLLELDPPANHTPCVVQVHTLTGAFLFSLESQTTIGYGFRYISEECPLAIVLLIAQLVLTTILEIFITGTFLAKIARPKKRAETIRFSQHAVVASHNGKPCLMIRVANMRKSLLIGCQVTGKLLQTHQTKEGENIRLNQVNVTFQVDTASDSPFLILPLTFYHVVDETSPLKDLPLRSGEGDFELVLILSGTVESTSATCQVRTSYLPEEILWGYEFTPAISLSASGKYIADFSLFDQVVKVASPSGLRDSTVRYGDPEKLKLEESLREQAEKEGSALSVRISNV
- experiment: Whole-cell patch clamp, Kir4.1 currents in transfected CHO-K1 cells
- Type: cell-based
- condition.parameters: CHO-K1, 10 μM; +50 mV; read-out: Kir4.1 Inhibition ± SD (%) at 10 μM, +50 mV

compound	measurement.unit	inhibition at 10 µM
c1ccc2c(c1)oc1ccc(Nc3ccnc(NCCCN4CCCOCC4)n3)cc12	%	97.4
O=c1c2ccccc2[nH]c2ccc(Nc3ccnc(NCCCN4CCOCC4)n3)cc12	%	1.43
c1ccc2c(c1)oc1ccc(Nc3ccnc(NCCCN4CCN(C5COC5)CC4)n3)cc12	%	97.5
CCn1c2ccccc2c2cc(Nc3ccnc(NCCCN4CCOCC4)n3)ccc21 [EHop-016, reference compound]	%	96.6
c1ccc2c(c1)oc1ccc(NC3CC4(CCN(CCCN5CCOCC5)CC4)C3)cc12	%	73
c1ccc2c(c1)oc1ccc(Nc3cc(NCCCN4CCOCC4)ncn3)cc12	%	87.3
C[C@@H]1CN(CCCNc2nccc(Nc3ccc4oc5ccccc5c4c3)n2)C[C@H](C)O1	%	97.5
c1ccc2cc(Nc3ccnc(NCCCN4CCOCC4)n3)ccc2c1	%	36.5
c1cc(Nc2ccc3[nH]ccc3c2)nc(NCCCN2CCOCC2)n1	%	38.4
c1ccc2c(c1)oc1ccc(Nc3ccnc(NCC4(CN5CCOCC5)CC4)n3)cc12	%	92.4
c1cc(NCCCN2CCOCC2)nc(Nc2ccc3oc4ccccc4c3c2)c1	%	2.61
c1ccc2c(c1)oc1ccc(Nc3ccnc(NCCCN4CCCCCC4)n3)cc12	%	98.5
OC(CNc1nccc(Nc2ccc3oc4ccccc4c3c2)n1)CN1CCOCC1 (stereo not drawn)	%	94.8
c1ccc2c3c([nH]c2c1)CCC(Nc1ccnc(NCCCN2CCOCC2)n1)C3 (stereo not drawn)	%	79.1
COc1cnc(NCCCN2CCOCC2)nc1Nc1ccc2oc3ccccc3c2c1	%	86.8

---

- tested.system: Kir4.1 (Homo sapiens, UniProt P78508)
- Construct: host or cells: CHO-K1
- experiment: Whole-cell patch clamp, Kir4.1 currents in transfected CHO-K1 cells
- Type: cell-based
- condition.parameters: CHO-K1, 10 μM; -120 mV; read-out: Kir4.1 Inhibition ± SD (%) at 10 μM, -120 mV
Given measured inhibition at 10 µM, output Y if it is greater than or equal to 90% and N if not.

molecule	answer.label
CCn1c2ccccc2c2cc(Nc3ccnc(NCCCN4CCOCC4)n3)ccc21 [EHop-016, reference compound]	Y
CC(CNc1nccc(Nc2ccc3oc4ccccc4c3c2)n1)CN1CCOCC1 (centres unmarked)	Y
O=c1c2ccccc2[nH]c2ccc(Nc3ccnc(NCCCN4CCOCC4)n3)cc12	N
Nc1ccnc(NCCCN2CCOCC2)n1	N

---

Below, each entry is listed with its recorded inhibition at 1 µM.
- tested.system: Kir4.1 (Homo sapiens)
- Construct: host or cells: CHO-K1
- experiment: Whole-cell patch clamp, Kir4.1 currents in transfected CHO-K1 cells
- Assay type: cell-based
- condition.parameters: CHO-K1, 1 μM; +50 mV; read-out: Kir4.1 Inhibition ± SD (%) at 1 μM, +50 mV

molecule	inhibition at 1 µM [%]
c1ccc2c(c1)oc1ccc(Nc3ccnc(NCCCN4CCCC4)n3)cc12	53.2
c1ccc2c(c1)oc1ccc(Nc3ccnc(NCCCN4CCOCC4)n3)cc12	82.5
c1ccc2c(c1)ccc1[nH]c3ccc(Nc4ccnc(NCCCN5CCOCC5)n4)cc3c12	79.3
CN(CCCN1CCOCC1)c1nccc(Nc2ccc3oc4ccccc4c3c2)n1	6.81
c1ccc2c(c1)oc1ccc(Nc3ccnc(OCCCN4CCOCC4)n3)cc12	7.39
c1ccc2c(c1)oc1ccc(Nc3ccnc(NCCCN4CCOCC4)c3)cc12	86.1
CCn1c2ccccc2c2cc(Nc3ccnc(NCCCN4CCOCC4)n3)ccc21 [EHop-016, reference compound]	76
c1ccc2c(c1)oc1ccc(Nc3cncc(NCCCN4CCOCC4)c3)cc12	-2.41
COC1CCN(CCCNc2nccc(Nc3ccc4oc5ccccc5c4c3)n2)CC1	73
CCN(CC)CCCNc1nccc(Nc2ccc3oc4ccccc4c3c2)n1	27
c1ccc2c(c1)oc1ccc(Nc3ccnc(NCCCN4CCCCC4)n3)cc12	85.4
c1ccc2c(c1)oc1ccc(NC3CC4(CCN(CCCN5CCOCC5)CC4)C3)cc12	18.4
c1ccc2c(c1)oc1ccc(Nc3cnc(NCCCN4CCOCC4)cn3)cc12	3.73
Cc1cnc(NCCCN2CCOCC2)nc1Nc1ccc2oc3ccccc3c2c1	16.8
CC1(C)c2ccccc2-c2cc(Nc3ccnc(NCCCN4CCOCC4)n3)ccc21	62
CC1CCN(CCCNc2nccc(Nc3ccc4oc5ccccc5c4c3)n2)CC1	96.3
